Cited source: ChEMBL document CHEMBL5030539

Organism: Homo sapiens
method_description: Inhibition of EGFR Ex19del/T790M/C797S triple mutant (unknown origin) assessed as enzyme residence time measured by -biacore direct binding assay
measure_name: TIME (h)

>>> measured_number("CCP(=O)(CC)c1ccccc1Nc1nc(Nc2cc(-c3cnn(C)c3)c(N3CCOCC3)cc2OC)ncc1Cl")
1.83
>>> measured_number("COc1cc(N2CCC(N(C)C)CC2)c(-c2cn[nH]c2)cc1Nc1ncc(Cl)c(Nc2ccccc2P(C)(C)=O)n1")
2.3
>>> measured_number("COc1cc(N2CCC(N(C)C)CC2)c(-c2cnn(C)c2)cc1Nc1ncc(Cl)c(Nc2ccccc2P(C)(C)=O)n1")
1.08

a: COc1cc(N2CCOCC2)c(-c2cn[nH]c2)cc1Nc1ncc(Cl)c(Nc2ccccc2P(C)(C)=O)n1
b: COc1cc(N2CCC(N3CCN(C)CC3)CC2)c(-c2cn[nH]c2)cc1Nc1ncc(Cl)c(Nc2ccccc2P(C)(C)=O)n1
c: COc1cc(N2CCOCC2)c(-c2cnn(C)c2)cc1Nc1ncc(Cl)c(Nc2ccccc2P(C)(C)=O)n1
d: COc1cc(N2CCC(N3CCN(C)CC3)CC2)ccc1Nc1ncc(Cl)c(Nc2ccccc2P(C)(C)=O)n1
Q) Order the records, beginning with the lowest TIME and ending with the highest. // rank by listing labels in the order requested
A) d, c, b, a

---

Listed compounds paired with reported solubility
method_description: Aqueous solubility of the compound at pH 7.4
Type: physicochemical
run_parameters: buffer

For orientation, consider the following solved cases.
>>> result("COc1cc(N2CCOCC2)c(-c2cn[nH]c2)cc1Nc1ncc(Cl)c(Nc2ccccc2P(C)(C)=O)n1")
"< 3 µM"
>>> result("COc1cc(N2CCN(C)CC2)c(-c2cnn(C)c2)cc1Nc1ncc(Cl)c(Nc2ccccc2P(C)(C)=O)n1")
"> 1000 µM"

// solubility value for COc1cc(N2CCC(N3CCN(C)CC3)CC2)c(-c2cnn(C)c2)cc1Nc1ncc(Cl)c(Nc2ccccc2P(C)(C)=O)n1 : > 1000 µM

// solubility value for COc1cc(N2CCC(N3CCN(C)CC3)CC2)ccc1Nc1ncc(Cl)c(Nc2ccccc2P(C)(C)=O)n1 : > 1190 µM

---

method_description: Intrinsic permeability of compound across apical to basolateral side in human Caco-2 cells
Assay type: ADME, cell-based
run_parameters: read-out: permeability
measure_name: Papp A→B at 10 µM (×10⁻⁶ cm/s)

>>> measured_number("COc1cc(N2CCN(C)CC2)c(-c2cnn(C)c2)cc1Nc1ncc(Cl)c(Nc2ccccc2P(C)(C)=O)n1")
2.6

A: CCP(=O)(CC)c1ccccc1Nc1nc(Nc2cc(-c3cnn(C)c3)c(N3CCOCC3)cc2OC)ncc1Cl
B: COc1cc(N2CCC(N(C)C)CC2)c(-c2cn[nH]c2)cc1Nc1ncc(Cl)c(Nc2ccccc2P(C)(C)=O)n1
Q) Lab note: record which item had the higher Papp A→B at 10 µM, A or B . // return label of chosen record
A) A
(A: 78 ×10⁻⁶ cm/s, B: 0.24 ×10⁻⁶ cm/s)

I: COc1cc(N2CCOCC2)c(-c2cnn(C)c2)cc1Nc1ncc(Cl)c(Nc2ccccc2P(C)(C)=O)n1
II: COc1cc(N2CCC(N3CCN(C)CC3)CC2)ccc1Nc1ncc(Cl)c(Nc2ccccc2P(C)(C)=O)n1
Q) Lab note: record which item had the higher Papp A→B at 10 µM, I or II . // return label of chosen record
A) I
(I: 61 ×10⁻⁶ cm/s, II: 4.7 ×10⁻⁶ cm/s)
